ASSAY_SUMMARY: Bioavailability in mouse at 5 mg/kg, po and 2 mg/kg, iv
Format: ADME, organism-based
DETAILS: in vivo
MEASURE: bioavailability (%)
Please state the figure in %; there is no need to write the unit.

(Q) Dear colleague, I am looking for the recorded bioavailability of the following compound: "COc1cc(OC2CCN(C)CC2)c2c(Nc3ccc(F)c(Cl)c3)ncnc2c1"
(A) 103

----------
ASSAY_SUMMARY: Percent of unbound ligand in rat plasma at 5 mg/kg, po and 2 mg/kg, iv
Format: ADME, organism-based
MEASURE: fraction unbound
# respond with the number and nothing more

(Q) Query (molecule): "COc1cc(OC2CCN(C)CC2)c2c(Nc3ccc(F)c(Cl)c3)ncnc2c1" ; field requested: fraction unbound
(A) 0.0251
